System: HEK293T-Rex ERSE-FLuc
procedureText: maximal ERSE-FLuc activation from dose-response fit, relative to thapsigargin (% of thapsigargin); higher = stronger activation
conditionLabel: 18 h
Kindly note that classification relies on maximal ERSE-FLuc activation with these boundaries: low = under 30, moderate = from 30 up to 70, high = 70 and over

itemSmiles: O=C(/C=C/c1ccccc1)Nc1ccc(Cl)cn1
assignedLabel: low

itemSmiles: COc1ccc(/C=C/c2nc3cc([N+](=O)[O-])ccc3s2)cc1O
assignedLabel: moderate

itemSmiles: Cc1ccc(O)c(N/C=C/C(=O)c2ccc(F)cc2)c1
assignedLabel: high

itemSmiles: O=C(/C=C/c1ccco1)Nc1ccccn1
assignedLabel: low

itemSmiles: CCOc1ccc(NC(=O)c2cccc(F)c2)c([N+](=O)[O-])c1
assignedLabel: low

itemSmiles: O=C(N/N=C\c1ccccc1[N+](=O)[O-])c1[nH]nc2c1CCc1ccccc1-2
assignedLabel: low

itemSmiles: COc1cccc(Nc2nc(-c3ccc(OC)c(F)c3)cs2)c1
assignedLabel: low

itemSmiles: O=C(Nc1ccccc1O)c1ccc(NS(=O)(=O)c2cccc3cccnc23)cc1
assignedLabel: high

itemSmiles: Cc1ccc(O)c(N/C=C/C(=O)c2cccs2)c1
assignedLabel: high

itemSmiles: Cc1ccc(O)c(NC(=O)CSc2n[nH]c(C)c2[N+](=O)[O-])c1
assignedLabel: high

itemSmiles: O=C(COC(=O)c1ccc(O)c(O)c1)Nc1nc(-c2ccccc2)cs1
assignedLabel: moderate

itemSmiles: Cc1ccc(O)c(NC(=O)c2cc(-c3cccnc3)on2)c1
assignedLabel: high

itemSmiles: CCc1cc2c(=O)c(-c3ccc4c(c3)OCCO4)coc2cc1OC
assignedLabel: moderate

itemSmiles: OCCNc1nc(Nc2ccc(Cl)cc2)nc2ccccc12
assignedLabel: high

itemSmiles: CNC(=O)c1ccccc1Nc1cc(NC(=O)Cc2ccc(F)c(F)c2)ncc1C(F)(F)F
assignedLabel: low

itemSmiles: O=C(COC(=O)c1cc(O)c(O)c(O)c1)Nc1ccc(Br)cc1F
assignedLabel: moderate

itemSmiles: CN(C)c1ccc(/C=N/NC(=O)c2cccc(Br)c2)cc1
assignedLabel: low

itemSmiles: CC1(C)Cc2ccccc2/C(=C/C(=O)C(=O)N/N=C/c2ccc(O)c(O)c2)N1
assignedLabel: moderate

itemSmiles: Nc1ccccc1NC(=O)c1ccc(Cl)cc1
assignedLabel: high

itemSmiles: Cc1ccc2nc(NC(=O)c3cccc4ccccc34)sc2c1
assignedLabel: moderate

---

Tested on: HEK293T-Rex ERSE-FLuc
procedureText: maximal ERSE-FLuc activation from dose-response fit, relative to thapsigargin (% of thapsigargin); higher = stronger activation
conditionLabel: 18 h
Reported maximal ERSE-FLuc activation values for the following compounds.

compound: COc1ccc(/C=N/NC(=O)c2cccc(F)c2)cc1Br
maximal ERSE-FLuc activation: 31
--
compound: Cc1ccc(O)c(NC(=O)CN(C)S(=O)(=O)c2ccc(Cl)cc2)c1
maximal ERSE-FLuc activation: 43.4
--
compound: OCCNc1nc(Nc2ccc(Br)cc2)nc2ccccc12
maximal ERSE-FLuc activation: 132
--
compound: COc1cccc(-c2cc(C(=O)Nc3cc(C)ccc3O)on2)c1
maximal ERSE-FLuc activation: 87
--
compound: O=C(N/N=C/c1cccc(Cl)c1Cl)c1ccccc1O
maximal ERSE-FLuc activation: 6.19
--
compound: Cc1ccc(C(=O)Nc2ccccc2N)cc1
maximal ERSE-FLuc activation: 137
--
compound: Cc1ccc(/C=N/NC(=O)c2cccc(Cl)c2)cc1
maximal ERSE-FLuc activation: 36.9
--
compound: Cc1ccc2nc(/C(C#N)=C\c3cc(Cl)cc4c3OCOC4)[nH]c2c1
maximal ERSE-FLuc activation: 20.1
--
compound: N#Cc1ccc(-c2cccs2)nc1SCc1ccccn1
maximal ERSE-FLuc activation: 28.6
--
compound: COc1ccc2[nH]c3c(N4CCCCC4)ncnc3c2c1
maximal ERSE-FLuc activation: 27.4
--
compound: Nc1ccc(-c2nc3cc(N)c(Cl)cc3[nH]2)cc1
maximal ERSE-FLuc activation: 29.6
--
compound: CCOc1cc(/C=C2/NC(=O)N(c3cccc(Cl)c3)C2=O)ccc1O
maximal ERSE-FLuc activation: 47.5
--
compound: CN(C)c1ccc(-c2nc3ccc(N)cc3[nH]2)cc1
maximal ERSE-FLuc activation: 42.7
--
compound: CN(C)c1ccc(/C=C(/C#N)C(=O)Nc2ccc(O)cc2)cc1
maximal ERSE-FLuc activation: 29.9
--
compound: COc1ccc(/C=C(\C#N)c2nc(-c3ccco3)cs2)cc1O
maximal ERSE-FLuc activation: 32.9
--
compound: COc1cc(/C=C/c2ccc(O)c(OC)c2)ccc1O
maximal ERSE-FLuc activation: 31.1
--
compound: CC(=O)NC1C(OC2OC(CC(O)C3OC(n4ccc(=O)[nH]c4=O)C(O)C3O)C(O)C(O)C2NC(=O)/C=C\CCCCCCCCCC(C)C)OC(CO)C(O)C1O (centres undefined)
maximal ERSE-FLuc activation: 139
--
compound: Cn1cccc1/C=C1/SC(=Nc2ccccc2)NC1=O
maximal ERSE-FLuc activation: 40.8
--
compound: C(=C\c1ccccc1)/C=N/Nc1nc2ccccc2[nH]1
maximal ERSE-FLuc activation: 25.5
--
compound: Cc1cc(C)nc(/N=C(\N)Nc2ccc(OCc3ccccc3)cc2)n1
maximal ERSE-FLuc activation: 46.9
--
compound: Cc1cc2nc(/C(C#N)=C/c3ccco3)[nH]c2cc1C
maximal ERSE-FLuc activation: 28
--
compound: c1ccc2cc(-c3cnnc(N4CCOCC4)n3)ccc2c1
maximal ERSE-FLuc activation: 25.2
--
compound: O=C1/C(=C/c2ccc(O)c(O)c2)SC(=S)N1c1ccc(O)cc1
maximal ERSE-FLuc activation: 77.1
--
compound: Cc1ccc(NC(=S)NC(=O)C(=O)Nc2ccccc2)cc1
maximal ERSE-FLuc activation: 6.38

---

System: HEK293T-Rex ERSE-FLuc
procedureText: maximal ERSE-FLuc activation from dose-response fit, relative to thapsigargin (% of thapsigargin); higher = stronger activation
conditionLabel: 18 h
Reported maximal ERSE-FLuc activation values for the following molecules.

molecule: O=C(Nc1ccccc1O)c1ccc(C(=O)c2ccccc2)cc1
maximal ERSE-FLuc activation: 103
--
molecule: Cc1ccc(O)c(NC(=S)NC(=O)/C=C/c2ccco2)c1
maximal ERSE-FLuc activation: 30.2
--
molecule: CC(=O)Oc1ccc(C(=O)OCc2ccc(Cl)cc2)cc1OC(C)=O
maximal ERSE-FLuc activation: 40.4
--
molecule: O=C(N/N=C/c1ccc(Cl)cc1)c1n[nH]c2c1CCCC2
maximal ERSE-FLuc activation: 21.7
--
molecule: O=C(Nc1ccc2c(c1)OCCO2)C(=O)Nc1ccccc1Cl
maximal ERSE-FLuc activation: 16.5
--
molecule: N#CC1=C(N)Oc2c(ccc3ccccc23)C1c1ccccc1 (configuration not stated)
maximal ERSE-FLuc activation: 15.5
--
molecule: O=c1[nH]c(/C=C2\C=Nc3ccccc32)c(O)n1-c1ccc(Cl)cc1
maximal ERSE-FLuc activation: 44.1
--
molecule: O=C1NC(=Nc2ccccc2)S/C1=C/c1ccc(O)c(O)c1
maximal ERSE-FLuc activation: 83.8
--
molecule: Nc1nc(Nc2ccc(Cl)cc2)nc2ccccc12
maximal ERSE-FLuc activation: 103
--
molecule: O=C(/C=C/c1ccco1)Nc1ccc(Br)cc1Cl
maximal ERSE-FLuc activation: 23.5
--
molecule: Cc1ccc(O)c(-c2cc(-c3ccc(F)cc3)n[nH]2)c1
maximal ERSE-FLuc activation: 71.4
--
molecule: Cc1ccc(O)c(N=CC2=C(O)c3ccccc3C2=O)c1
maximal ERSE-FLuc activation: 74.8

---

Tested on: HEK293T-Rex XBP1-RLuc
procedureText: EC50 for XBP1-RLuc reporter activation
conditionLabel: 18 h

itemSmiles: N#Cc1c(NC(=O)c2cccc(F)c2)sc2c1CCC2
measuredTarget: HEK293T-Rex XBP1-RLuc
EC50 for XBP1-RLuc reporter activation: > 16.5 µM

itemSmiles: O=C(N/N=C\C(Br)=C\c1ccccc1)c1n[nH]c2c1CCCC2
measuredTarget: HEK293T-Rex XBP1-RLuc
EC50 for XBP1-RLuc reporter activation: > 16.9 µM

itemSmiles: Cc1ccccc1NC(=O)c1sc2nc(N)c(C#N)c(-c3ccc(C(C)C)cc3)c2c1N
measuredTarget: HEK293T-Rex XBP1-RLuc
EC50 for XBP1-RLuc reporter activation: 4.47 µM

itemSmiles: COc1ccc(Nc2nccn3c(-c4ccsc4)cnc23)cn1
measuredTarget: HEK293T-Rex XBP1-RLuc
EC50 for XBP1-RLuc reporter activation: > 16.9 µM

itemSmiles: Cc1ccc(C(=O)Nc2sc3c(c2C#N)CCC3)cc1
measuredTarget: HEK293T-Rex XBP1-RLuc
EC50 for XBP1-RLuc reporter activation: > 16.7 µM

itemSmiles: OCCNc1nc(Nc2ccc(Cl)c(Cl)c2)nc2ccccc12
measuredTarget: HEK293T-Rex XBP1-RLuc
EC50 for XBP1-RLuc reporter activation: 4.98 µM
